Target: human DGAT2 (hDGAT2) (Homo sapiens (Human), UniProt Q96PD7)
Sequence (Q96PD7 whole entry): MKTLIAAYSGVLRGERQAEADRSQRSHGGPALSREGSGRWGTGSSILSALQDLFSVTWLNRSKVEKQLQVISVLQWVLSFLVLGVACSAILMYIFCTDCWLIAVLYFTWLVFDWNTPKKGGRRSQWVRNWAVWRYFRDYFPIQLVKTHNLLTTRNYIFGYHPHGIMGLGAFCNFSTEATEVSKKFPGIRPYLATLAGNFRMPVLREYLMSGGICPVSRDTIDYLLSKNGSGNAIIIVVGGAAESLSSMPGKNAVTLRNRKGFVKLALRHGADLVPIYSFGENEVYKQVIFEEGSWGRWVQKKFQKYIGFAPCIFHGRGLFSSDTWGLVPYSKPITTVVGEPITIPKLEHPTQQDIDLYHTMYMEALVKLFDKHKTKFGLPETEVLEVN
Assay: DGAT2 enzymatic activity assay (13C18-triolein formation, LC/MS/MS)
Type: biochemical
Conditions: hDGAT2 Sf-9 membrane prep, 25 μM diolein, 5 μM 13C oleoyl-CoA; read-out: Human DGAT2 IC50
observation.type: IC50 (nM)

Recorded results for 4 compounds are shown here.
CC1(NC(=O)c2cnc3c(-c4cccc(OC(F)F)c4)nn(C4CCOC(C(F)(F)F)C4)c3c2)CS(=O)(=O)C1 (single isomer, unassigned) [Example 76a] = 21
CC(C)n1nc(-c2cccc(OC(F)F)c2)c2ncc(C(=O)NC3(C)CS(=O)(=O)C3)cc21 = 4.7
C[C@]1(NC(=O)c2cnc3c(-c4cccc(OC(F)F)c4)cn(-c4ccc(F)cc4)c3n2)CCS(=O)(=O)C1 = 50
CC1(NC(=O)c2cnc3c(-c4cccc(OC(F)F)c4)nn(CC(O)C(F)(F)F)c3c2)CS(=O)(=O)C1 (single isomer, unassigned) [Example 67a] = 73

[P] C[C@]1(NC(=O)c2cnc3c(-c4cccc(OC(F)F)c4)nn(C4CCCOC4)c3c2)CCS(=O)(=O)C1 (single isomer, unassigned) [Example 62b]
[Q] CC1(NC(=O)c2cnc3c(-c4cccc(OC(F)F)c4)nn(C4CCOC(C)(C)C4)c3c2)CS(=O)(=O)C1 (single isomer, unassigned) [Example 77b]
**Q:** I'm curious, which of these has a smaller IC50 number: P or Q ? Refer to your chosen item by its label in the answer.
**A:** Q
(Q: 7.4 nM, P: 116 nM)

This collection of values is drawn from patent US11787810B2.
